Hello, the source for this data is patent US6737383B1, in case you need it.

Each entry below carries its reported Plant response rating, Morningglory.
# System: morningglory
# assay_procedure: Test B pre/postemergence morningglory
# Type: in vivo, Ipomoea hederacea
# experimental_parameters: Preemergence, Rate 250 g/ha; scale of 0 to 10 where 0 is no effect and 10 is complete control
Give only the figure.

Here is how some molecules turned out for Plant response rating, Morningglory.
Problem: State the recorded Plant response rating, Morningglory for this entry: CCc1ccccc1-n1c(=O)on(C(=O)N(c2ccc(F)cc2)C(C)C)c1=O
Result: 0

Problem: State the recorded Plant response rating, Morningglory for this entry: Cc1ccccc1-n1c(=O)on(C(=O)N(c2cc(OC(C)C)c(Cl)cc2Cl)C(C)C)c1=O
Result: 0

Problem: State the recorded Plant response rating, Morningglory for this entry: CC(C)N(C(=O)n1oc(=O)n(C(C)C)c1=O)c1ccc(F)cc1F
Result: 6

Moving on to another molecule below.
Problem: State the recorded Plant response rating, Morningglory for this entry: CC(C)N(C(=O)n1oc(=O)n(-c2ccc(Cl)cc2C(F)(F)F)c1=O)c1ccc(F)cc1
Result: 0
